# in-use stability, peptide by HPLC-assay per entry
- procedureDetails: HPLC-assay for in-use stability after reconstitution with 4.2% sodium hydrogen carbonate solution (Example 2, peptides SEQ ID NO 1-10)
- Format: physicochemical
- measurementContext: +mannitol/lutrol; 2 h after reconstitution
# number only, unit % dropped from output

| seqString | in-use stability, peptide by HPLC-assay / % |
| --- | --- |
| SVASTITGV (listed as Homo sapiens) [ADF-001, Adipophilin tumour-associated peptide] | 99.6 |

I would be grateful if you could share the reported in-use stability, peptide by HPLC-assay for YVDPVITSI (listed as Homo sapiens) [MET-001, c-met proto-oncogene tumour-associated peptide] . 99.8

Please look up its in-use stability, peptide by HPLC-assay: LLGATCMFV (listed as Homo sapiens) [CCN-001, Cyclin D1 tumour-associated peptide] 92.2

What value of measured in-use stability, peptide by HPLC-assay is listed for ALFDGDPHL (listed as Homo sapiens) [K67-001, KIAA0367 tumour-associated peptide] ? 100.4

Reported in-use stability, peptide by HPLC-assay, sequence SQDDIKGIQKLYGKRS (listed as Homo sapiens) [MMP-001, Matrix metalloproteinase 7 tumour-associated peptide] : ____ 99.3

What value of in-use stability, peptide by HPLC-assay has been reported for the following sequence? LAALPHSCL (listed as Homo sapiens) [RGS-001, RGS-5 tumour-associated peptide] 95.5

Query (sequence): ALADGVQKV (listed as Homo sapiens) [APO-001, Apolipoprotein L1 tumour-associated peptide] ; field requested: in-use stability, peptide by HPLC-assay 99.8

Consider the sequence shown here: VMAGDIYSV (listed as Homo sapiens) [ADF-002, Adipophilin tumour-associated peptide] What is its recorded in-use stability, peptide by HPLC-assay? 100.0

Entry SVFAGVVGV (listed as Homo sapiens) [GUC-001, GUCY1A3 tumour-associated peptide] : reported in-use stability, peptide by HPLC-assay = ? 99.5

====

Reported in-use stability, Peptide [%] values are given for each entry in this list.
- procedureDetails: HPLC-assay for in-use stability after reconstitution with 4.2% sodium hydrogen carbonate solution (Example 3, peptides SEQ ID NO 11-23)
- Assay type: physicochemical
- measurementContext: no excipients; 6h
State the answer as a number, implicitly in %.

# example entries with known answers
| seqString | resultUnit | in-use stability, Peptide [%] |
| --- | --- | --- |
| TMLARLASA (listed as Homo sapiens) [CSP-001, Chondroitin sulfate proteoglycan 4 peptide] | % | 95.0 |
| GLWHHQTEV (listed as Homo sapiens) [NRCAM-001, Neuronal cell adhesion molecule peptide] | % | 95.6 |

// next item, in-use stability, Peptide [%] requested
Give its in-use stability, Peptide [%] value. Item: KVFAGIPTV (listed as Homo sapiens) [PTP-005, Protein tyrosine phosphatase, receptor-type, Z polypeptide 1 peptide] 95.8

====

- procedureDetails: HPLC-assay for in-use stability after reconstitution with 4.2% sodium hydrogen carbonate solution (Example 3, peptides SEQ ID NO 11-23)
- Assay type: physicochemical
- measurementContext: no excipients; 6h
Recorded in-use stability, Peptide [%] values for a group of sequences are listed next.
Quick note: give the figure in %, leave out the unit.

| seqString | in-use stability, Peptide [%] / % |
| --- | --- |
| ALWAWPSEL (listed as Homo sapiens) [BCA-002, Brevican tumour-associated peptide] | 95.4 |
| AIIDGVESV (listed as Homo sapiens) [PTP-003, Protein tyrosine phosphatase, receptor-type, Z polypeptide 1 peptide] | 96.1 |
| LTFGDVVAV (listed as Homo sapiens) [FABP7-001] | 96.3 |

Looking for the measured in-use stability, Peptide [%] of NLDTLMTYV (listed as Homo sapiens) [NLGN4X-001, Neuroligin 4, X-linked peptide] , can you help? 95.7

Data request, read-out in-use stability, Peptide [%], for AMTQLLAGV (listed as Homo sapiens) [TNC-001, Tenascin C peptide] 95.7

====

- procedureDetails: HPLC-assay for in-use stability after reconstitution with 4.2% sodium hydrogen carbonate solution (Example 3, peptides SEQ ID NO 11-23)
- Format: physicochemical
- measurementContext: no excipients; 4h
testReadout: in-use stability, Peptide [%] (%)
Answer with a number only, understood to be in %.

Item KVFAGIPTV (listed as Homo sapiens) [PTP-005, Protein tyrosine phosphatase, receptor-type, Z polypeptide 1 peptide] has what recorded in-use stability, Peptide [%]? 100.4

// in-use stability, Peptide [%] lookup, key: KIQEILTQV (listed as Homo sapiens) [IGF2BP3-001] 101.2

So what's the measured in-use stability, Peptide [%] for this one? AIIDGVESV (listed as Homo sapiens) [PTP-003, Protein tyrosine phosphatase, receptor-type, Z polypeptide 1 peptide] 100.9

====

- procedureDetails: HPLC-assay for in-use stability after reconstitution with 4.2% sodium hydrogen carbonate solution (Example 2, peptides SEQ ID NO 1-10)
- Type: physicochemical
- measurementContext: +mannitol/lutrol; 5 h after reconstitution
# Lookup of reported in-use stability, peptide by HPLC-assay keyed by entry
Express your answer in %, writing the number without its unit.

| seqString | in-use stability, peptide by HPLC-assay [%] |
| --- | --- |
| ALFDGDPHL (listed as Homo sapiens) [K67-001, KIAA0367 tumour-associated peptide] | 100.6 |
| SVFAGVVGV (listed as Homo sapiens) [GUC-001, GUCY1A3 tumour-associated peptide] | 99.7 |
| VMAGDIYSV (listed as Homo sapiens) [ADF-002, Adipophilin tumour-associated peptide] | 99.9 |
| LAALPHSCL (listed as Homo sapiens) [RGS-001, RGS-5 tumour-associated peptide] | 88.0 |
| LLGATCMFV (listed as Homo sapiens) [CCN-001, Cyclin D1 tumour-associated peptide] | 86.1 |

Given the sequence SVASTITGV (listed as Homo sapiens) [ADF-001, Adipophilin tumour-associated peptide] , what is its reported in-use stability, peptide by HPLC-assay? 99.9

Returns the measured in-use stability, peptide by HPLC-assay for the input sequence. Input: YVDPVITSI (listed as Homo sapiens) [MET-001, c-met proto-oncogene tumour-associated peptide] 99.8

Can you share its in-use stability, peptide by HPLC-assay? I mean this sequence: ALADGVQKV (listed as Homo sapiens) [APO-001, Apolipoprotein L1 tumour-associated peptide] 99.6

Param item = SQDDIKGIQKLYGKRS (listed as Homo sapiens) [MMP-001, Matrix metalloproteinase 7 tumour-associated peptide] ; retrieve measured in-use stability, peptide by HPLC-assay. 98.9

====

- procedureDetails: HPLC-assay for stability of peptides in lyophilised formulation on storage for 3 months (Example 4)
- Type: physicochemical
- measurementContext: -20° C. +/- 5° C.; 2 months
Catalogue of stability of peptides in formulation, 2 M values

Examples from the recorded data:
| seqString | result |
| --- | --- |
| AIIDGVESV (listed as Homo sapiens) [PTP-003, Protein tyrosine phosphatase, receptor-type, Z polypeptide 1 peptide] | 97.48 % of Initial |
| NLDTLMTYV (listed as Homo sapiens) [NLGN4X-001, Neuroligin 4, X-linked peptide] | 97.60 % of Initial |

Next, consider the following sequence.
Give the measured stability of peptides in formulation, 2 M of KVFAGIPTV (listed as Homo sapiens) [PTP-005, Protein tyrosine phosphatase, receptor-type, Z polypeptide 1 peptide] . 97.41 % of Initial

====

Catalogue of in-use stability, peptide by HPLC-assay values
- procedureDetails: HPLC-assay for in-use stability after reconstitution with 4.2% sodium hydrogen carbonate solution (Example 2, peptides SEQ ID NO 1-10)
- Format: physicochemical
- measurementContext: no excipients; 1 h after reconstitution
Just the number in %, nothing appended.

in-use stability, peptide by HPLC-assay for VMAGDIYSV (listed as Homo sapiens) [ADF-002, Adipophilin tumour-associated peptide] ? 100.9

// in-use stability, peptide by HPLC-assay lookup, key: ALADGVQKV (listed as Homo sapiens) [APO-001, Apolipoprotein L1 tumour-associated peptide] 100.0

====

- procedureDetails: HPLC-assay for stability of peptides in lyophilised formulation on storage for 3 months (Example 4)
- Format: physicochemical
- measurementContext: +5° C. +/- 3° C.; 1 month
testReadout: stability of peptides in formulation, 1 M

Example cases with answers are listed next.
| seqString | result |
| --- | --- |
| KIQEILTQV (listed as Homo sapiens) [IGF2BP3-001] | 99.00 % of Initial |
| LTFGDVVAV (listed as Homo sapiens) [FABP7-001] | 99.08 % of Initial |
| GLWHHQTEV (listed as Homo sapiens) [NRCAM-001, Neuronal cell adhesion molecule peptide] | 99.13 % of Initial |
| AIIDGVESV (listed as Homo sapiens) [PTP-003, Protein tyrosine phosphatase, receptor-type, Z polypeptide 1 peptide] | 99.07 % of Initial |

Need stability of peptides in formulation, 1 M, item ALWAWPSEL (listed as Homo sapiens) [BCA-002, Brevican tumour-associated peptide] 99.13 % of Initial
